Tested on: P. falciparum 3D7
METHOD_DESCRIPTION: in vitro asexual P. falciparum imaging assay, 3D7 strain
Assay type: cell-based
TEST_PARAMETERS: Plasmodium falciparum, 3D7, 72 h; read-out: 3D7 IC50
MEASUREMENT_KIND: IC50 (nM)

[[record]]
compound = "Cn1cc(NC(=O)c2cc(NC(=O)c3ccc(/C=C/c4ccc5nsnc5c4)cc3)cn2C)cc1C(=O)NCCN1CCOCC1.O=C(O)C(F)(F)F [S-MGB-188]"
measurement_kind = "IC50"
experimental_result = 57

[[record]]
compound = "CC(C)CCn1cc(NC(=O)c2cc(NC(=O)c3cc(NC(=N)c4cc5ccccc5cn4)cn3C)cn2C)cc1C(=O)NCCCN(C)C.O=C(O)C(F)(F)F [S-MGB-330]"
measurement_kind = "IC50"
experimental_result = 408

[[record]]
compound = "COc1cccc(/C=C/c2ccc(C(=O)Nc3cc(C(=O)Nc4cc(C(=O)NCCC(=N)N)n(C)c4)n(C)c3)cn2)c1.O=C(O)C(F)(F)F.O=C(O)C(F)(F)F [S-MGB-368]"
measurement_kind = "IC50"
experimental_result = 134

[[record]]
compound = "COc1cccc(/C=C/c2ccc(C(=O)Nc3cc(C(=O)Nc4cc(C(=O)NCCN(C)C)n(C)c4)n(C)c3)cc2)c1.O=C(O)C(F)(F)F [S-MGB-247]"
measurement_kind = "IC50"
experimental_result = 109


Where do these numbers come from? They come from paper PMC11528320.
